- assay_summary: Aqueous solubility of the compound in phosphate buffer at pH 7.4
- Format: physicochemical
reported_endpoint: solubility

Challenge: What value of solubility has been reported for the following compound? `COc1cc(N2CCN(S(C)(=O)=O)CC2)ccc1Nc1ncc(Cl)c(-c2cnc3ccccn23)n1`
Response given: < 0.6 µM

----------
Record form. Attribute: logP. Fill in for each entry.
- assay_summary: physchem
- assay_context: octanol/water
One number for each entry.

molecular_string=COc1cc(N2CC3CNCC(C2)O3)ccc1Nc1ncc(Cl)c(-c2cnc3ccccn23)n1 quantitative_result=3.6

Challenge: What value of logP has been reported for the following molecule? `COc1cc(N2CC3COCC(C2)N3)ccc1Nc1ncc(Cl)c(-c2cnc3ccccn23)n1`
Response given: 3.1

----------
- assay_summary: Dissociation constant, pKa of the compound at pH 7.4 by UV spectrophotometric titration
- Type: physicochemical
Record form. Attribute: pKa. Fill in for each entry.
Give bare numbers.

molecular_string=COc1cc(N2CC3COCC(C2)N3)ccc1Nc1ncc(Cl)c(-c2cnc3ccccn23)n1 reported_endpoint=pKa quantitative_result=6.7
molecular_string=COc1cc(N2CC3CNCC(C2)O3)ccc1Nc1ncc(Cl)c(-c2cnc3ccccn23)n1 reported_endpoint=pKa quantitative_result=8.7

Now turn to the next compound.
Challenge: What value of pKa has been reported for the following compound? `COc1cc(N2CC3CN(CCO)CC(C2)O3)ccc1Nc1ncc(Cl)c(-c2cnc3ccccn23)n1`
Response given: 8.4

----------
- assay_summary: physchem
- assay_context: buffer, pH 7.4
reported_endpoint: logD
One number for each entry.

molecular_string=COc1cc(N2CC3COCC(C2)N3)ccc1Nc1ncc(Cl)c(-c2cnc3ccccn23)n1 quantitative_result=3

Now turn to the next compound.
Challenge: What value of logD has been reported for the following compound? `COc1cc(N2CC3CNCC(C2)O3)ccc1Nc1ncc(Cl)c(-c2cnc3ccccn23)n1`
Response given: 2.3
